Measured values drawn from patent US4119629A for this set.

- method summary: LD50 studies of 7-chloro-1-azaphenoxathiin
- Type: in vivo
- study conditions: in vivo
property measured: LD50

# compound smiles, property measured, value
measured = [
    ("Clc1ccc2c(c1)Oc1cccnc1S2", "LD50", "~750 mg/kg"),
]
